biological target: T1, human C-MET on stably transfected CHO-K1 cells (human, UniProt P08581 25-1390); assay: flow cytometry, C-MET CHO-K1 cells
T1 construct: also called hucMET; human C-MET+ CHO-K1 cells
T1 sequence (P08581 25-1390 limits assumed): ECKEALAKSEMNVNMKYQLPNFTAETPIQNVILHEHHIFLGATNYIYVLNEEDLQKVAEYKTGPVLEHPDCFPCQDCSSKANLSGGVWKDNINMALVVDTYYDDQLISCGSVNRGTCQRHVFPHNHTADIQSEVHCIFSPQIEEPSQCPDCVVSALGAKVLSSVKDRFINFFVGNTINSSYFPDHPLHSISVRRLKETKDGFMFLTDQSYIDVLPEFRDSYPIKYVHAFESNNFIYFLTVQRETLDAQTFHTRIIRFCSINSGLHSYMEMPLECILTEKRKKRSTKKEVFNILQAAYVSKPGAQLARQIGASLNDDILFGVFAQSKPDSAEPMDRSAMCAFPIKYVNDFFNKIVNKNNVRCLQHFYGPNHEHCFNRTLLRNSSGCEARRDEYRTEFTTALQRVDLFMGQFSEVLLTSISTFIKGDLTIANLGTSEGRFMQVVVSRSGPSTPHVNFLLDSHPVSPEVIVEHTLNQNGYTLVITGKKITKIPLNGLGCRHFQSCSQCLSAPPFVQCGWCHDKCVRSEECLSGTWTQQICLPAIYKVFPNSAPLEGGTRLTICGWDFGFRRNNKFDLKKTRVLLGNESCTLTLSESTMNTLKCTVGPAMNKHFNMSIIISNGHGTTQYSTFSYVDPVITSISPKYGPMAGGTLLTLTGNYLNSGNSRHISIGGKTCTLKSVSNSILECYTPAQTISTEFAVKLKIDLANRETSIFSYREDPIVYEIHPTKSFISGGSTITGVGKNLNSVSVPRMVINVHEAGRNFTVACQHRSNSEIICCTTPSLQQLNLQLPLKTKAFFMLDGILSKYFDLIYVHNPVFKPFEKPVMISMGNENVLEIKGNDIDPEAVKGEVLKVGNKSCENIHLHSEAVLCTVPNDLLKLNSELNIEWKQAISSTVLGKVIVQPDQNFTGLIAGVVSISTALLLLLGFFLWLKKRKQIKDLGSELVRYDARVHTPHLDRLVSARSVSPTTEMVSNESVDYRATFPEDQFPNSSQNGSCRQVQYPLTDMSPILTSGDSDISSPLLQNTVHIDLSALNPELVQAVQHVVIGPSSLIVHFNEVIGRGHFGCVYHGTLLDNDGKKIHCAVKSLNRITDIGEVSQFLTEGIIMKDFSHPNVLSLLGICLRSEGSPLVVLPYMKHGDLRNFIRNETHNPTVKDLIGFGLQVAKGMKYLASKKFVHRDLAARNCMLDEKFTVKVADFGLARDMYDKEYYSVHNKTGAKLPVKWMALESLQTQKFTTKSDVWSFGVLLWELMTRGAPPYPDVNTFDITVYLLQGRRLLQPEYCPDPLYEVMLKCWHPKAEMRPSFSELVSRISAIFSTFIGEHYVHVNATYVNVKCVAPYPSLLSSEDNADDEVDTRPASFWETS
List of maximum MFI, fold over Isotype IgG4 background values.

Example binders with recorded maximum MFI, fold over Isotype IgG4 background:
Binder	Measurement
MH7 (antibody, human IgG4, V domains shown) VH: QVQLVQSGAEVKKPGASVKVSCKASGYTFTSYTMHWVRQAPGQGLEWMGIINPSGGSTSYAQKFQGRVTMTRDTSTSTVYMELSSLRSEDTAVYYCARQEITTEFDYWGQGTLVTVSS VL: EIVLTQSPGTLSLSPGERATLSCRASQSVSSYANSYLHWYQQKPGQAPRLLIYRGSTRESGIPDRFSGSGSGTDFTLTISRLEPEDFAVYYCQQSKSEPLTFGGGTKVEIK	> 10 fold
09B08 (antibody, IgG4, V domains shown) VH: QVQLVQSGAEVKKPGASVKVSCKASGYTFTSYTMHWVRQAPGQGLEWMGWINPNNGSTNYAQKFQGRVTMTRDTSTSTVYMELSSLRSEDTAVYYCARSEITTDFDYWGQGTLVTVSS VL: EIVLTQSPGTLSLSPGERATLSCRASQSVSSYANSYLHWYQQKPGQAPRLLIYRGSTRESGIPDRFSGSGSGTDFTLTISRLEPEDFAVYYCQQSKSDPLTFGGGTKVEIK	> 10 fold

Turning now to a further binder:
# maximum MFI, fold over Isotype IgG4 background lookup, item 09E04 (antibody, IgG4, V domains shown) VH: QVQLVQSGAEVKKPGASVKVSCKASGYIFTSYTMHWVRQAPGQGLEWMGWINPNGGSTSYAQKFQGRVTMTRDTSTSTVYMELSSLRSEDTAVYYCARQEITTEFDYWGQGTLVTVSS VL: EIVLTQSPGTLSLSPGERATLSCRASQSVESYANSYLHWYQQKPGQAPRLLIYRGSTRESGIPDRFSGSGSGTDFTLTISRLEPEDFAVYYCQQYGSEPLTFGGGTKVEIK
> 10 fold
